These measurements were taken from PubChem BioAssay.

target: Short transient receptor potential channel 6 (Mus musculus) (UniProt Q61143); assay: TRPC6 blockade by TRPC4 inhibitor hits – cell-based, HEK293, membrane potential dye, duplicate, selectivity assay for TRPC4 inhibitor project, confirmation (AID 434948); conditions: HEK293 TRPC6, membrane potential dye fluorescence, at 10 µM, stimulated with maximal-effect acetylcholine
Sequence (Q61143 whole entry, looked up): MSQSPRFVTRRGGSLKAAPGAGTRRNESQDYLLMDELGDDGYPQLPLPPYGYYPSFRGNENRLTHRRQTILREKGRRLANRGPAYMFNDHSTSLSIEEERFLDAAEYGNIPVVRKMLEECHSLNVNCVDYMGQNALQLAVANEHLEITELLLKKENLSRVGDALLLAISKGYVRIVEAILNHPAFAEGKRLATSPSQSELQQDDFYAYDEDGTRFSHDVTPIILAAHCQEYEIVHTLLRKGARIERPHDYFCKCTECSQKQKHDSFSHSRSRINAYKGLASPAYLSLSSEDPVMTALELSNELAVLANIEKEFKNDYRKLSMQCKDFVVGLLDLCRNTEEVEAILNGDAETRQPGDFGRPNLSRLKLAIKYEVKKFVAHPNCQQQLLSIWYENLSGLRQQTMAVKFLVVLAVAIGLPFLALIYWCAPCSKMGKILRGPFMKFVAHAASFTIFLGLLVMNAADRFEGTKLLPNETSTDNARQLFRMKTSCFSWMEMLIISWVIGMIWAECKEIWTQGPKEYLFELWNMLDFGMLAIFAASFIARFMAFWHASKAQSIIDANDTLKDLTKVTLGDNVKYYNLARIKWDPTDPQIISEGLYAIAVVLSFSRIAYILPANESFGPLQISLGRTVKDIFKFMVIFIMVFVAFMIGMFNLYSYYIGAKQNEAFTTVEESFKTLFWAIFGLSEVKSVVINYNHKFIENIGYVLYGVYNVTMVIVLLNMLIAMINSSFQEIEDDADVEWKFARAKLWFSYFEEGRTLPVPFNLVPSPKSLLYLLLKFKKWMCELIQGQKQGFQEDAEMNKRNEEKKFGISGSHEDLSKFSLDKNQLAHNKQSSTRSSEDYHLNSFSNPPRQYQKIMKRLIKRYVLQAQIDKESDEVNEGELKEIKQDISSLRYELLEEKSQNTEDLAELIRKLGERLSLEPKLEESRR
The source made the active and inactive calls.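 Rule for the calls: active = active in primary screen and both duplicates, each dropping signal beyond three positive-control SD with fluorescence still positive; inactive = the rest.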
Possible outcomes: active, inactive

INSERT INTO assay_data (compound, class_name) VALUES
  ('COc1cc(C(=O)N(CCc2ccccc2)C2=CC3CCC(C2)N3C)cc(OC)c1OC (stereo not drawn)', 'inactive'),
  ('O=C(CCN1CCc2ccccc2C(O)(c2ccccc2)C1)c1ccc2c(c1)OCCO2 (stereo not drawn)', 'inactive'),
  ('CC(C(=O)c1ccc(Br)cc1)[n+]1cccc(NC(=O)c2ccccc2)c1 (stereo not drawn)', 'inactive'),
  ('CNC[C@H](Cc1ccccc1)NC[C@@H](Cc1cccc2ccccc12)NCCc1ccc(C)cc1', 'inactive'),
  ('Cc1cc2nc3s/c(=C/c4ccc(-c5ccccc5C(=O)O)o4)c(=O)n3c2cc1C', 'inactive'),
  ('Cc1ccc(C)c(N(CC(=O)NC2CCCC2)C(=O)c2csnn2)c1', 'inactive'),
  ('c1ccc(-c2nc(NCc3ccco3)c3ccccc3n2)nc1', 'active'),
  ('Cc1cc(C)c2c(=O)n(CC(=O)NCCCN3CCN(c4ccccc4F)CC3)sc2n1', 'inactive'),
  ('CCc1ccc(Nc2n[n+](-c3ccccc3)c(/C=C/c3ccccc3)s2)cc1', 'inactive'),
  ('O=C1C=CC(=O)N1CCNc1ncc(C(F)(F)F)cc1Cl', 'inactive'),
  ('Cc1ccc(C2N(c3cccc(Cl)c3)C(=O)C3CCCN32)o1 (stereo not drawn)', 'inactive'),
  ('COc1ccc(C)c(NC(=O)NCCc2cnc[nH]2)c1', 'inactive'),
  ('CCCCOc1ccc(CSCCN=C(N)N)cc1', 'inactive'),
  ('Cc1ccc(NC(=O)NCC(c2ccccc2)N(C)C)cc1 (stereo not drawn)', 'inactive'),
  ('CC(=O)c1ccc(OCC(O)CN2CCN(S(=O)(=O)c3c(C)cc(C)cc3C)CC2)cc1 (stereo not drawn)', 'inactive'),
  ('COc1ccc(O)c(C(=O)c2cnc3c(c2)c(=O)[nH]c(=O)n3C)c1', 'inactive'),
  ('CC[n+]1c(/C=C/Nc2ccccc2)oc2ccc(OC)cc21', 'active'),
  ('O=C(c1coc2ccc(O)c(CN3CCOCC3)c12)C1CC1', 'inactive'),
  ('CN1C(CC(=O)Nc2ccc(Br)cc2)c2ccccc2CC1(C)C (stereo not drawn)', 'inactive'),
  ('c1ccc(Cn2nnc3cnccc32)cc1', 'inactive'),
  ('Cc1ccccc1CN1CCCC(C(=O)Nc2ccccc2Oc2cccnc2)C1 (stereo not drawn)', 'inactive'),
  ('COC(=O)c1ccc(Nc2cc(C)nc3ccccc23)cc1', 'active'),
  ('CCc1cc2c(SCC(=O)N(C)C3CCS(=O)(=O)C3)ncnc2s1 (stereo not drawn)', 'inactive');

* * *

test: serotonin-gated TRPC4 signal block – cell-based, second counter screen, HEK293 TRPC4/5HT1a, Fluo-4, counter-screen for TRPC4 inhibitor project, confirmation (AID 434978); conditions: Fluo-4 calcium flux, at 10 µM, serotonin added to trigger calcium flux
Activity calls are given as the source filed them.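 The calls were made as follows: active = primary screen active whose calcium signal fell more than 3 SD beyond the full-serotonin control mean in both duplicate plates; inactive = the rest.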
Possible outcomes: T (active), F (inactive)

INSERT INTO assay_data (compound, class_name) VALUES
  ('Fc1ccc(-n2cc(CNCCc3ccncc3)c(-c3ccccc3Cl)n2)cc1', 'F'),
  ('CCCCN(CC)CCNC(=O)c1ccc2c(Cl)c3c(nc2c1)CCC3', 'F'),
  ('CCN(CC)CCNC(=O)c1cc2c(-c3cccc(OC)c3)nn(C)c2s1', 'F'),
  ('Cc1cc(NCc2ccccc2)nc(N2CCOCC2)n1', 'T'),
  ('Cc1cc(CN2CCCC(C(=O)Nc3ccc(-c4nc5ccccc5[nH]4)cc3)C2)n[nH]1 (stereo not given)', 'T'),
  ('CCN(CC)Cc1cc(CCNC(=O)c2ccc(Cl)cc2)ccc1O', 'T'),
  ('C/C(=N\N1CCN(C)CC1)c1ccc(Cl)c(Cl)c1', 'F'),
  ('O=C(CC1C(=O)NCCN1Cc1ccccc1C(F)(F)F)NCCc1ccccn1 (stereo not given)', 'F'),
  ('CC1CCc2c(sc3ncnc(SCC(=O)Nc4ccc(C(=O)O)cc4)c23)C1 (stereo not given)', 'F'),
  ('Cc1ccc2nc(N(CCCN(C)C)C(=O)c3ccc(S(=O)(=O)N4CCc5ccccc5C4)cc3)sc2c1', 'F');

* * *

molecular target: Short transient receptor potential channel 6 (Mus musculus) (UniProt Q61143); test: TRPC6 blockade by TRPC4 inhibitor hits – cell-based, HEK293, membrane potential dye, duplicate, selectivity assay for TRPC4 inhibitor project, confirmation (AID 434948); conditions: HEK293 TRPC6, membrane potential dye fluorescence, at 10 µM, stimulated with maximal-effect acetylcholine
Calls of active or inactive are those of the source.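 Rule for the calls: active = active in primary screen and both duplicates, each dropping signal beyond three positive-control SD with fluorescence still positive; inactive = the rest.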
Possible outcomes: label 1 for active, label 0 for inactive

INSERT INTO measurements (compound, class_name) VALUES
  ('CCCCC(=O)Nc1cccc2c1C(=O)N(c1ccccc1)C2=O', 'label 0'),
  ('CC(C)CN(C(=O)C1CC1)c1c(N)n(Cc2ccccc2)c(=O)[nH]c1=O', 'label 0'),
  ('CCOc1cc(S(=O)(=O)N2CCN(C(=O)c3ccco3)CC2)ccc1F', 'label 0'),
  ('COC(=O)c1cccc(NC(=S)Nc2cccc(Cl)c2Cl)c1', 'label 0'),
  ('NC1=NC2=C(CCCC2)C2(CCCCC2)S1', 'label 1'),
  ('Oc1ccc(CN2CCc3ccccc3C2)c2cccnc12', 'label 1'),
  ('CC(=O)Nc1cccc(C(=O)NCC2(N3CCCCC3)CCCCC2)c1', 'label 0'),
  ('COc1c2c(cc3c1C(CC(O)Cc1ccccc1)N(C)CC3)OCO2 (stereo unspecified)', 'label 0'),
  ('Fc1ccccc1Sc1ccccc1CNC1=NCCN1', 'label 0'),
  ('Cc1ccc(NC(=O)CN(C)C(=O)CNC(=O)c2sc3ccccc3c2Cl)cc1', 'label 0'),
  ('CN(CCc1ccccn1)C(=S)Nc1cccc(S(=O)(=O)N(C)C)c1', 'label 0');

* * *

tested on: TRPC4 beta (transient receptor potential cation channel C4), mouse; test: TRPC4 cation channel opening, retest – cell-based, Fluo4 calcium, HEK293 TRPC4beta/mu-opioid, duplicates, 10 µM, confirmation (AID 2426); settings: Fluo4 calcium fluorescence, at 10 µM
The source made the active and inactive calls.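 The calls were made as follows: active = fluorescence ratio normalized to control raised more than 50% in primary screen plus both repeat runs; inactive = the rest.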
Possible outcomes: active, inactive

INSERT INTO measurements (compound, class_name) VALUES
  ('CC(C)(C)Cc1nc2ccccc2n1CCc1ccccc1', 'inactive'),
  ('CC1CCN(CCc2nc3cc(NS(=O)(=O)c4ccc(F)cc4)ccc3n2C)CC1', 'inactive'),
  ('CN(C)C(CNC(=O)Cc1ccc([N+](=O)[O-])cc1)c1ccccc1 (stereo unspecified)', 'active'),
  ('Cc1ccc(NC(=O)CNCC(c2ccccc2)N(C)C)cc1F (stereo unspecified)', 'active'),
  ('Clc1cc(/C=N\NC2=NCCN2)cc(Cl)n1', 'inactive'),
  ('Fc1ccc(-c2nn(-c3ccccc3)cc2CNCc2ccccc2)cc1', 'inactive'),
  ('COc1ccc2nc(NCc3ccccc3)[nH]c2c1', 'inactive'),
  ('C=CCOc1ccc(CN(C)Cc2nc3cc(C(F)(F)F)ccc3c(=O)[nH]2)cc1', 'inactive'),
  ('COc1ccc(CCNCC(O)COc2ccc(OC)cc2C(C)(C)C)cc1 (stereo unspecified)', 'inactive'),
  ('CCOC(=O)CSc1nc2c(sc(=S)n2-c2ccccc2OC)c(=O)n1-c1ccccc1OC', 'inactive'),
  ('Oc1c(CN2CCCCC2)cc(Br)c2cccnc12', 'inactive');

* * *

system: TRPC4 beta (transient receptor potential cation channel C4), mouse; test: TRPC4 cation channel opening, retest – cell-based, Fluo4 calcium, HEK293 TRPC4beta/mu-opioid, duplicates, 10 µM, confirmation (AID 2426); conditions: Fluo4 calcium fluorescence, at 10 µM
Activity calls are given as the source filed them.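 How the source made its calls: active means fluorescence ratio normalized to control raised more than 50% in primary screen plus both repeat runs; inactive means the rest.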
Possible outcomes: active, inactive

INSERT INTO measurements (compound, system_tested, class_name) VALUES
  ('COc1ccc(NC(C)=O)cc1NC(C)C(=O)Nc1cc(C(F)(F)F)ccc1N1CCOCC1 (stereo unspecified)', 'TRPC4 beta (transient receptor potential cation channel C4), mouse', 'inactive'),
  ('COc1cc(NC(=O)CSc2ncnc3sc4c(c23)CCC(C)C4)c(C(=O)O)cc1OC (stereo unspecified)', 'TRPC4 beta (transient receptor potential cation channel C4), mouse', 'inactive'),
  ('Cc1cc(OCC(=O)N2CCCC2)cc(C)c1Cl', 'TRPC4 beta (transient receptor potential cation channel C4), mouse', 'inactive'),
  ('CC(Oc1ccc(Cl)cc1Cl)c1nc(-c2ccccn2)no1 (stereo unspecified)', 'TRPC4 beta (transient receptor potential cation channel C4), mouse', 'inactive'),
  ('O=[N+]([O-])c1cccc(-c2nnc(C3CC3)o2)c1', 'TRPC4 beta (transient receptor potential cation channel C4), mouse', 'inactive'),
  ('COc1ccc(NC(=O)c2cccc(N3C(=O)C4CC=C(C)CC4C3=O)c2)c(OC)c1 (stereo unspecified)', 'TRPC4 beta (transient receptor potential cation channel C4), mouse', 'inactive'),
  ('Cc1ccc(CNC(=O)CCC2CCCN(Cc3cc4ccccc4o3)C2)o1 (stereo unspecified)', 'TRPC4 beta (transient receptor potential cation channel C4), mouse', 'inactive'),
  ('Clc1ccc(CN2C3=NCCN3c3ccccc32)cc1', 'TRPC4 beta (transient receptor potential cation channel C4), mouse', 'inactive'),
  ('CC(C)(C)C(=O)NC(=S)NNC(=O)c1sc2ccccc2c1Cl', 'TRPC4 beta (transient receptor potential cation channel C4), mouse', 'active'),
  ('CCCCn1c(N)c(N(CCOC)C(=O)c2ccc(-c3ccc(C(C)=O)cc3)o2)c(=O)[nH]c1=O', 'TRPC4 beta (transient receptor potential cation channel C4), mouse', 'inactive'),
  ('COc1ccc(CN2CCN(Cc3ccc(C(F)(F)F)cc3)CC2)c(OC)c1', 'TRPC4 beta (transient receptor potential cation channel C4), mouse', 'inactive');
